The measurements presented in this section are drawn from patent US20240059769A1.

target: hTSLP-His (human, UniProt Q969D9 29-159, limits assumed); test: cell-based or functional assay
Can you tell me IC50 [pM], STAT5 phosphorylation inhibition in MUTZ5 cells for the items I'm about to list?
One number for each entry, in pM.

Study these solved cases before continuing.
BDG38.132 (antibody, V domains shown, IgG1) VH: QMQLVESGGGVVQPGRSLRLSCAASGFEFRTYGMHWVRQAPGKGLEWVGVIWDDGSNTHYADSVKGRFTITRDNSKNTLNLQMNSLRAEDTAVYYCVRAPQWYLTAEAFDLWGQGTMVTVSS VL: SYILTQPPSVSVAPGETATITCGGNLIGARLVHWYQQKPGQAPVLVIYDDSDRPSRIPERFSGSNIGNTATLTISRVEAGDEADYYCQVWDYSSDHMVFGGGTKLTVL :: 0.386
BDG38.080 (antibody, V domains shown, IgG1) VH: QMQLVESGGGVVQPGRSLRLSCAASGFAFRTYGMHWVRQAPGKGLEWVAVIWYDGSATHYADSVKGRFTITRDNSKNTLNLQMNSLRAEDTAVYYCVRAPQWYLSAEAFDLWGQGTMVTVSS VL: SYVLTQPPSVSVAPGETATITCGGNLIGAYLVHWYQQKPGQAPVLVIYDDSDRPDRIPERFSGSNSGNTATLTISRVEAGDEADYYCQVWDHNTNHMVFGGGTKLTVL :: 34.3

Q: Look at this binder and give its reported IC50 [pM], STAT5 phosphorylation inhibition in MUTZ5 cells. BDG38.115 (antibody, V domains shown, IgG1) VH: QMQLVESGGGVVQPGRSLTLSCAASGFEFRTYGMHWVRQAPGKGLEWLGVIWYDGSNTHYADSVKGRFTITRDNSKNTLNLQMNSLRAEDTAVYYCVRAPQWYLTAEAFDLWGQGTMVTVSS VL: SYILTQPPSVSVAPGQTATITCGGNLIGARLVHWYQQKPGQAPVLVIYDDSDRPSRIPERFSGSNSGNTATLTISDVEEGDEADYYCQVWDYSSNTYVFGGGTKLTVL
Ans: 300
